Data credit: the supplement of paper PMC9170038

Listed below: apparent KD of MS2 coat protein values for each entry.
- Tested on: MS2 coat protein
- test_description: apparent KD of MS2 coat protein, switch ON state; designed switch direction (-1 OFF switch, 1 ON switch): -1; higher = weaker reporter binding
- experimental_conditions: FMN input: 0 or 200 uM; Eterna round: R93 (includes R88 designs)

| sequence_string | endpoint_result |
| --- | --- |
| AGCAAACAUGAGGAUCACCCAUGUUAGGAUAUGAACGAAAUAAAAUAAAAAUAAAAGUUCAGAAGGGACGAGCA [Mat - Exclusion 1 - Eli mod - D27] | 22.4 nM |

Entry AAGAAACAUGAGGAUCACCCAUGUGAGGAUAUGCAAGAAAGAAAGAAAGAAAGAAGAAGCAGAAGGCACAAAGG [Gaius Turranius] has what apparent KD of MS2 coat protein?
42.4 nM

// apparent KD of MS2 coat protein lookup, key: UAAAGACAUGAGGAUCACCCAUGUGAGGAUAUCGGAGAUAACGGAACAUCAAGUUCGGCGAGAAGGCGCAGGAA [JR_Exc001_Sub405]
33.4 nM

* * *

- Test system: MS2 coat protein
- test_description: apparent KD of MS2 coat protein; designed switch direction (-1 OFF switch, 1 ON switch): 1; higher = weaker reporter binding
- experimental_conditions: input ligand: none
recorded_metric: apparent KD of MS2 coat protein
Please append the unit to your numeric answer.

Solved cases (3 shown):
| sequence_string | tgt | recorded_metric | endpoint_result |
| --- | --- | --- | --- |
| GAGUGGCAGUUAGGAUAUAUAGUGAUAAUGACAAUAGAAGGAACAGACAUGAGGAUCACCCAUGUAGGACUAAUCCAGAGAGAG [Parity 36 - Jieux - Same State NG 1] (Eterna round: R96, puzzle: Same State NG 1) | MS2 coat protein | apparent KD of MS2 coat protein | 30.2 nM |
| AGAGGAGGAGCAGGAUAUUCGAAGAAGGACGUGGAAGAAGGGUUCAUGCGAUGACAUGAGGAUCACCCAUGUACCGCGCGAGGA [AK SSNG1-V2-12] (Eterna round: R96, puzzle: Same State NG 1) | MS2 coat protein | apparent KD of MS2 coat protein | 69 nM |
| CGCCAGAGAGCAGGAUAUGGGCCACGGCCUAAGGGCUGUGGACUCACAUGAGGAUCACCCAUGUCCCAGAAGGGCUCCUGGCUA [Usarbebi] (Eterna round: R96, puzzle: Same State NG 2) | MS2 coat protein | apparent KD of MS2 coat protein | 174 nM |

Quick check: apparent KD of MS2 coat protein of ACAUGAGGAGCAGGAUAUCGCAUGAGGAUCACCCGAGAAGGGCUCACACAUGAGGAUCACCCAUGUAUCACCCAUGUAUGUUGA [twils 1] (Eterna round: R96, puzzle: Same State NG 1) ?
498 nM

Any idea what its apparent KD of MS2 coat protein is? The sequence is GCACUCCUAGGAGCUGCGACAUGAGGAUCACCCAUGUAAUCACAGGAUAUGCGAGUCCGAAUUUUGCAGAAGGGUGAUAAGAAC [Biesanarre] (Eterna round: R96, puzzle: Same State NG 3)
45.7 nM

* * *

Listed sequences paired with reported apparent KD of MS2 coat protein
- Test system: MS2 coat protein
- test_description: apparent KD of MS2 coat protein; designed switch direction (-1 OFF switch, 1 ON switch): -1; higher = weaker reporter binding
- experimental_conditions: Eterna round: R95; input ligand: FMN 200 uM
// return numeric value only (unit: nM, not printed)

| sequence_string | unit | apparent KD of MS2 coat protein |
| --- | --- | --- |
| AAGAAACAUGAGGAUCACCCAUGUGAGGAUAUGACUAAGAAAAGAAAAGAAAGAAGAUUCAGAAGGCACAAAGG [salish99-ex1_r3_062] (puzzle: Exclusion 1) | nM | 91.2 |

Need apparent KD of MS2 coat protein of UUUAAUUUUUUUUUUUUACAAGCUUUUUGCUCGUCUUAUACAUGAGGAUCACCCAUGUAGAUGGGAAAUGAAUUAUC [JMF 98] (puzzle: Sensor v3, turn-off variant 2) , thanks.
26.1

So what's the measured apparent KD of MS2 coat protein for this one? GACUAAAUGUGGUUUGGUUACAUGAGGAUCACCCAUGUUGGUCUAAGAACAUGUCUUUUGUACGCUUGUCUUAUAUA [JR_SV3TOV1_Sub067] (puzzle: Sensor v3, turn-off variant 1)
630

Fill in the blank: the reported apparent KD of MS2 coat protein of UUUAAUUUUUUUUUUUUACAAGCUUUUUGCUCGUCUUAUACAUGAGGAUCACCCAUGUGGGUGAGGAGUAAAUUAUC [JMF 61] (puzzle: Sensor v3, turn-off variant 2) is ____.
37.9

# get_value(readout='apparent KD of MS2 coat protein', item= GUGUGCAGAGGAUAUACAUAGGAAAAUAAAAGAGAAGUGGGACAUGAGGAUCACCCAUGUAGAAGGCUGAGUGU [Excluse me!! 22 - Jieux - Exclusion 2] (puzzle: Exclusion 2) )
89.9

* * *

- System: K4 kissing-loop RNA reporter;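 also: bound reporter read as fluorescence of individual clusters on recovered sequencing chips by microscopy, with normalized cluster intensities fitted with a binding model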
- test_description: apparent KD of K4 kissing-loop reporter; higher = weaker reporter binding
- experimental_conditions: Eterna round: R107; input ligand: none
recorded_metric: apparent KD of K4 kissing-loop reporter (nM)
# number only, unit nM dropped from output

Examples from the recorded data:
| sequence_string | unit | endpoint_result |
| --- | --- | --- |
| AUUAAUUUCAGAGGAUAUGCUUAAUUGAUUAAAUAUAAUCUAUUAUGCAGUGAUGUUGCAUUUUUUGCAGAAGGCUGAUUUAUAA [JR_SSFMNB_Sub017] | nM | 506 |
| UGACUGGACUGAAGGAGCGCAAAACUCCUAGUGAUGUUAGGAAAACGAGACAAAGUCUCGAUGCAGGUAGGUCGCAGUCUAGUCU | nM | 185 |
| UAUAUGCAGUGAUGUUGCGGCACACUUCCGAAGGAUAUGUCCGGUGACAGAAGGUCGGUCCAUGGGACAUCACGUGUGCUUGAUG [theeternabot_exclusion_KL_FMN_A_15] | nM | 613 |
| AGUCCUAUGACGGCCGCCACUCCGGUUAUGAUUUGCCAAGUGAUGUUUGGGUAUCAGGCGAGGCGGAGGACCGGGUCGACCUGCC [theeternabot_exclusion_KL_Trp_B_18] | nM | 151 |
| GGCCGCAAGGCGAGCGCUCCCACUCCGGAAGGAGCGCCCGCAAGGGCAGGUAGGUCGCCGGAGUGAUGUUCCGGUGGAGGGCUCG [#2 Exclusion - Arginine A Attempt #16 (Inspired by Omei)] | nM | 369 |

Quick check: apparent KD of K4 kissing-loop reporter of GUGCGCGCGGCGGCCGCCACUCGCAUGAGAGUGAUGUUCUCGGGACUGACGGAAGUCAGUCAUGGGAGGACCGGGCCGGGCUGCG [#2 Same State - Tryptophan B Attempt #13 (HarryS)] ?
208

Consider the sequence shown here: UGUCAUUGGUCUGAUACCAGUACCCUUGGCAGCCAAGGAGUGAUGUUCCAAGGAUACCAGUGCCCUUGGCAGCAGACCGAUGACU [TheoBS 12 #DoubleAptamer #SwitchBubble] What is its recorded apparent KD of K4 kissing-loop reporter?
1120

Using the record for GUUCGAUUCUGAGUGAUGUUGAGAAUUGAGAAGGAUAUCCAGAAAAGGAGAAGGUCUACGUCAUGCGCCUCGAUUUGCUAGCUGC [theeternabot_exclusion_KL_FMN_A_50] , report its apparent KD of K4 kissing-loop reporter.
630

For the sequence GAUUCUAGCGAAAGUGAUGUUUUCGAGGAUACCAGUGCCACUUGACACCCUUGGCAGCCUACCCGUCAUCACAAGUGGCGUUAAA [theeternabot_exclusion_KL_Theo_A_28] , what apparent KD of K4 kissing-loop reporter is on record?
129

Which apparent KD of K4 kissing-loop reporter value belongs to UCAAACGAUGGAAGGAGCGCUCGUCAGUCCUGCGAGUGAUGUUCGUGGGUAAAUAGUCGCGAGCAGGUAGGUCGCCAUCUUAAGC [Bisodi] ?
118

If you can, please state the reported apparent KD of K4 kissing-loop reporter value of AAAGAUCUUCUAGAAACUAGAAGAUCAAGAGAGGAUAUCCGAAUUCGGAGAAGGCUCACUAAGUGAUGUUUGGAGGGAAUCCCAA [AK1 SS FMN A] .
1670

* * *

- Tested on: MS2 coat protein
- test_description: apparent KD of MS2 coat protein; higher = weaker reporter binding
- experimental_conditions: Eterna round: R107; input ligand: arginine 13.2 mM
Parameter apparent KD of MS2 coat protein: see the listing below.
Hey, just the number and the unit after it is fine.

Reported apparent KD of MS2 coat protein, sequence AUAUAUACAUGAGGAUCACCCAUGUUAUUUCGAGGACCGGUACGGCCGCCACUCGAUAGAGUAGAAGUAAAUUUUAAUUCAUGUA [JR_SSTryptoA_Sub008] : ____
13.9 nM

What value of apparent KD of MS2 coat protein has been recorded for this entry: UAUCCACAUGAGGAUCACCCAUGUAGGGAAGGAGCGGUGAUUUCACCAGGUAGGUCGCCUUGCUGAGGGUUGCCGGUGGAAUCGU [Exclusion - Arginine A (Freestyle 33)]
12.5 nM

apparent KD of MS2 coat protein lookup needed for CUCCGAGGCUAUACUAUCCGCCUCAGUGAUACCAGAAUACCUAUAUUCCCUUGGCAGCAUCACAUGAGGAUCACCCAUGUGCCAU [SSTheo A #14] , thanks.
13.4 nM
